experimental_target: T1, delta opioid receptor (DOR) (UniProt P41143)
T1 chain: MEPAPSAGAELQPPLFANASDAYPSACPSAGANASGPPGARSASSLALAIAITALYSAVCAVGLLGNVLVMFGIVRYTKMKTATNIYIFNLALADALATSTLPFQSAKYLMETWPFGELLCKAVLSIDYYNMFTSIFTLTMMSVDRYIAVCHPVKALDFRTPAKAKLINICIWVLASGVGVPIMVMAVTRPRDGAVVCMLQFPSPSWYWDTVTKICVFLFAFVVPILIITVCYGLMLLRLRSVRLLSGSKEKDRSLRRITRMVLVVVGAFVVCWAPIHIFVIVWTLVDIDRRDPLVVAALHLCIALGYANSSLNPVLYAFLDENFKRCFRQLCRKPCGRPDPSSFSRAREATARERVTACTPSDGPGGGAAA
method_notes: competition
Non-standard residues stand in square brackets, D forms with d. Primed or numbered codes have the meaning given here. No end group written: not given here. *: point of attachment. NH(3,5-(CF3)2-benzyl) = FC(F)(F)c1cc(CN*)cc(C(F)(F)F)c1; NMePhe(4-F) = CN[C@@H](Cc1ccc(F)cc1)C(=O)O; Phe(4-F) = N[C@@H](Cc1ccc(F)cc1)C(=O)O; NMeF = CN[C@@H](Cc1ccccc1)C(=O)O; 4‑Ampa = not defined here; 4‑Apac = not defined here; 4Abz = Nc1ccc(C(=O)O)cc1; 4Amb′ = not defined here; Ahx = NCCCCCC(=O)O; GABA = NCCCC(=O)O; βAla = NCCC(=O)O
Label key: yes (1) means Ki under 50 nM; no (0) means Ki of 50 nM or more.

**Q:** Ki under 50 nM? Item: Y[dA]G[Phe(4-F)]GPLW-{NH(3,5-(CF3)2-benzyl)} [AKG130]
**A:** yes (1)

**Q:** Does the reported Ki of Y[dA]G[NMeF][4Abz]PLW-{NH(3,5-(CF3)2-benzyl)} [AKG176] stay below 50 nM?
**A:** no (0)

**Q:** Hi there! Is Ki for Y[dA]G[NMeF]GPLW-{NH(3,5-(CF3)2-benzyl)} [AKG113] below 50 nM, do you know?
**A:** yes (1)

**Q:** Criterion: Ki strictly below 50 nM. Is it met by Y[dA]G[NMeF][GABA]PLW-{NH(3,5-(CF3)2-benzyl)} [AKG123] ?
**A:** yes (1)

**Q:** For Y[dA]G[NMePhe(4-F)]GPLW-{NH(3,5-(CF3)2-benzyl)} [AKG131] , is the recorded Ki below the cut-off of 50 nM?
**A:** yes (1)

**Q:** Lab note: Ki threshold 50 nM. Does this binder come in strictly under it? Y[dA]G[NMeF][βAla]PLW-{NH(3,5-(CF3)2-benzyl)} [AKG119]
**A:** yes (1)

**Q:** I'd appreciate it if you could check whether Y[dA]G[NMeF][Ahx]PLW-{NH(3,5-(CF3)2-benzyl)} [AKG124] has Ki smaller than 50 nM.
**A:** yes (1)

**Q:** is_below(Ki, 50 nM) for Y[dA]G[NMeF][4‑Apac]PLW-{NH(3,5-(CF3)2-benzyl)} (reading uncertain) [AKG177] ?
**A:** no (0)

**Q:** Just wondering, is Ki of Y[dA]G[NMeF][4Amb′]PLW-{NH(3,5-(CF3)2-benzyl)} (reading uncertain) [AKG125] below 50 nM?
**A:** no (0)

**Q:** Please state whether Ki is below 50 nM for Y[dA]G[NMeF][4‑Ampa]PLW-{NH(3,5-(CF3)2-benzyl)} (reading uncertain) [AKG178]
**A:** no (0)

**Q:** Just wondering, is Ki of YAGFXPLW (D-Ala2, NMePhe4, Nle5; C-terminal NH-Bn(3',5'-(CF3)2)) [AKG112] below 50 nM?
**A:** yes (1)
